# Target Or Test System: UGT1A1 (Homo sapiens)
# Sequence (P22309 26-533): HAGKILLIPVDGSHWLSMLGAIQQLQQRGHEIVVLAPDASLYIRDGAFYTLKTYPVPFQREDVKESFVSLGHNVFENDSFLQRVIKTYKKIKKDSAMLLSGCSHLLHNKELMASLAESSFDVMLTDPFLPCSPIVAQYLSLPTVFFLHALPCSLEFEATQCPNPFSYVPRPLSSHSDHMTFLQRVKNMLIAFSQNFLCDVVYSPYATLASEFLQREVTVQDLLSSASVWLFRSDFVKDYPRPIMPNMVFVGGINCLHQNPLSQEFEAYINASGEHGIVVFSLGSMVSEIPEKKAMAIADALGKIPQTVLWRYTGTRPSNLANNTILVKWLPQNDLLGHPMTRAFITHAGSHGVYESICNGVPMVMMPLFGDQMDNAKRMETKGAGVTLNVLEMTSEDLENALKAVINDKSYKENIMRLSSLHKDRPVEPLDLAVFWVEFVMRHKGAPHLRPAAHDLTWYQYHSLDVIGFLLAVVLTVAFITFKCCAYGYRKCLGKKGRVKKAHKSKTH
# Assay Procedure: in vitro
# Stated Conditions: human liver microsomes (suspension), pH 7.8
Endpoint Name: microsomal CLint (µL/min/mg)
The response must be a number in µL/min/mg with no trailing unit.

# microsomal CLint of C[C@]12CC[C@@H]3c4ccc(O)cc4CC[C@H]3[C@@H]1CC[C@@H]2O [E2, estradiol] = 59
